B1: Histidine--tRNA ligase, cytoplasmic, residues 8 to 45; numbered along this chain, P12081 (parent)
chain: EELVKLQGERVRGLKQQKASAELIEEEVAKLLKLKAQL

# Variants of: B1
# Measurement description: abundance fitness (aPCA) (normalised: wild type 0, dead -1); higher = more abundant; growth selection in yeast, the domain comes from the species named
# Test context: Homo sapiens

[
  {
    "Record sequence": "EELVKLQGERVRGLKQQKASAELIEEESAKLLKLKAQL",
    "abundance fitness": 0.094
  },
  {
    "Record sequence": "IELVKLQGERVRGLKQQKASAELIEEEVAKLLKLKAQL",
    "abundance fitness": -0.132
  },
  {
    "Record sequence": "EELVKLQGEGVRGLKQQKASAELIEEEVAKLLKLKAQL",
    "abundance fitness": -0.229
  },
  {
    "Record sequence": "EELVKLQGERVRGLKQQKASAELIEEEVAKLLKLKAQN",
    "abundance fitness": -0.05
  },
  {
    "Record sequence": "EELVKLQGERVRGLKQQKASAELIEEEVAKLLKFKAQL",
    "abundance fitness": -0.148
  },
  {
    "Record sequence": "EELVKLQGERVRGLKQQKASAELIEEEVAKLLFLKAQL",
    "abundance fitness": -0.338
  },
  {
    "Record sequence": "EELVKLQGERVRCLKQQKASAELIEEEVAKLLKLKAQL",
    "abundance fitness": 0.271
  },
  {
    "Record sequence": "EELVKLQGEMVRGLKQQKASAELIEEEVAKLLKLKAQL",
    "abundance fitness": -0.06
  },
  {
    "Record sequence": "EELVKLQGERVRGLVQQKASAELIEEEVAKLLKLKAQL",
    "abundance fitness": -0.103
  },
  {
    "Record sequence": "EELVKLQGERVRGRKQQKASAELIEEEVAKLLKLKAQL",
    "abundance fitness": -0.332
  },
  {
    "Record sequence": "EELVKLQGERVRGLKQQKRSAELIEEEVAKLLKLKAQL",
    "abundance fitness": -0.255
  },
  {
    "Record sequence": "EELVKLQGERVRGLKQQKASAELIEEEVAKLFKLKAQL",
    "abundance fitness": -0.289
  },
  {
    "Record sequence": "EEKVKLQGERVRGLKQQKASAELIEEEVAKLLKLKAQL",
    "abundance fitness": -0.088
  }
]
